Reference for the values: paper PMC10914731

Format: in vitro ADME, Mice
condition parameters: clearance in microsomes
*1 amine or outer side, *2 acyl side, *3 side chain or, on linkers, in order; H or OH if unused. Where a SMILES comes first, the peptide text is derived from it. [ ]: non-standard residue; d: D form. NMeTrp(1-Me) = CN[C@@H](Cc1cn(C)c2ccccc12)C(=O)O; X1 = C#CCn1cc(C[C@H](N[*:1])C(=O)[*:2])c2ccccc21; NMeLeu(5-OH,4R) = CN[C@@H](C[C@@H](C)CO)C(=O)O; Phe(βR-OMe) = CO[C@H](c1ccccc1)[C@H](N)C(=O)O; NMeL = CN[C@@H](CC(C)C)C(=O)O

{"columns": ["compound", "Microsomal Stability Mice"],
 "data": [
  ["CO[C@H](c1ccccc1)[C@@H]1NC(=O)[C@H](C)NC(=O)[C@H](C[C@@H](C)CO)N(C)C(=O)[C@H](Cc2cn(Cc3cn(CCOCCOCCOCCn4cc(Cn5cc(C[C@@H]6NC(=O)[C@H](C(C)C)NC(=O)[C@H](CC(C)C)N(C)C(=O)[C@H](C(C)C)NC(=O)[C@H]([C@H](OC)c7ccccc7)NC(=O)[C@H](C)NC(=O)[C@H](C[C@@H](C)CO)N(C)C6=O)c6ccccc65)nn4)nn3)c3ccccc23)NC(=O)[C@H](C(C)C)NC(=O)[C@H](CC(C)C)N(C)C(=O)[C@H](C(C)C)NC1=O", "53 %Qh"],
  ["CO[C@H](c1ccccc1)[C@@H]1NC(=O)[C@H](C)NC(=O)[C@H](C[C@@H](C)CO)N(C)C(=O)[C@H](Cc2cn(Cc3cn(CCOCCn4cc(Cn5cc(C[C@@H]6NC(=O)[C@H](C(C)C)NC(=O)[C@H](CC(C)C)N(C)C(=O)[C@H](C(C)C)NC(=O)[C@H]([C@H](OC)c7ccccc7)NC(=O)[C@H](C)NC(=O)[C@H](C[C@@H](C)CO)N(C)C6=O)c6ccccc65)nn4)nn3)c3ccccc23)NC(=O)[C@H](C(C)C)NC(=O)[C@H](CC(C)C)N(C)C(=O)[C@H](C(C)C)NC1=O", "43 %Qh"],
  ["C#CCn1cc(C[C@@H]2NC(=O)[C@H](C(C)C)NC(=O)[C@H](CC(C)C)N(C)C(=O)[C@H](C(C)C)NC(=O)[C@H]([C@H](OC)c3ccccc3)NC(=O)[C@H](C)NC(=O)[C@H](C[C@@H](C)CO)N(C)C2=O)c2ccccc21 [Compound 5] (cyclo(A[Phe(βR-OMe)]V[NMeL]V[X1][NMeLeu(5-OH,4R)]))", "> 88 %Qh"],
  ["CO[C@H](c1ccccc1)[C@@H]1NC(=O)[C@H](C)NC(=O)[C@H](C[C@@H](C)CO)N(C)C(=O)[C@H](Cc2cn(C)c3ccccc23)N(C)C(=O)[C@H](CCC(=O)N(C)C)NC(=O)[C@H](CC(C)C)N(C)C(=O)[C@H](C(C)C)NC1=O [SI-76] (cyclo(A[Phe(βR-OMe)]V[NMeL]E(NMe2)[NMeTrp(1-Me)][NMeLeu(5-OH,4R)]))", "> 88 %Qh"],
  ["CO[C@H](c1ccccc1)[C@@H]1NC(=O)[C@H](C)NC(=O)[C@H](C[C@@H](C)CO)N(C)C(=O)[C@H](Cc2cn(Cc3cn(CCOCCOCCOCCOCCn4cc(Cn5cc(C[C@H]6C(=O)N(C)[C@@H](C[C@@H](C)CO)C(=O)N[C@@H](C)C(=O)N[C@@H]([C@H](OC)c7ccccc7)C(=O)N[C@@H](C(C)C)C(=O)N(C)[C@@H](CC(C)C)C(=O)N[C@@H](C(C)C)C(=O)N6C)c6ccccc65)nn4)nn3)c3ccccc23)N(C)C(=O)[C@H](C(C)C)NC(=O)[C@H](CC(C)C)N(C)C(=O)[C@H](C(C)C)NC1=O", "77 %Qh"]
]}
